TARGET UNDER TEST: LRRK2 G2019S (Homo sapiens, UniProt Q5S007, G2019S)
Sequence (Q5S007 whole entry G2019S): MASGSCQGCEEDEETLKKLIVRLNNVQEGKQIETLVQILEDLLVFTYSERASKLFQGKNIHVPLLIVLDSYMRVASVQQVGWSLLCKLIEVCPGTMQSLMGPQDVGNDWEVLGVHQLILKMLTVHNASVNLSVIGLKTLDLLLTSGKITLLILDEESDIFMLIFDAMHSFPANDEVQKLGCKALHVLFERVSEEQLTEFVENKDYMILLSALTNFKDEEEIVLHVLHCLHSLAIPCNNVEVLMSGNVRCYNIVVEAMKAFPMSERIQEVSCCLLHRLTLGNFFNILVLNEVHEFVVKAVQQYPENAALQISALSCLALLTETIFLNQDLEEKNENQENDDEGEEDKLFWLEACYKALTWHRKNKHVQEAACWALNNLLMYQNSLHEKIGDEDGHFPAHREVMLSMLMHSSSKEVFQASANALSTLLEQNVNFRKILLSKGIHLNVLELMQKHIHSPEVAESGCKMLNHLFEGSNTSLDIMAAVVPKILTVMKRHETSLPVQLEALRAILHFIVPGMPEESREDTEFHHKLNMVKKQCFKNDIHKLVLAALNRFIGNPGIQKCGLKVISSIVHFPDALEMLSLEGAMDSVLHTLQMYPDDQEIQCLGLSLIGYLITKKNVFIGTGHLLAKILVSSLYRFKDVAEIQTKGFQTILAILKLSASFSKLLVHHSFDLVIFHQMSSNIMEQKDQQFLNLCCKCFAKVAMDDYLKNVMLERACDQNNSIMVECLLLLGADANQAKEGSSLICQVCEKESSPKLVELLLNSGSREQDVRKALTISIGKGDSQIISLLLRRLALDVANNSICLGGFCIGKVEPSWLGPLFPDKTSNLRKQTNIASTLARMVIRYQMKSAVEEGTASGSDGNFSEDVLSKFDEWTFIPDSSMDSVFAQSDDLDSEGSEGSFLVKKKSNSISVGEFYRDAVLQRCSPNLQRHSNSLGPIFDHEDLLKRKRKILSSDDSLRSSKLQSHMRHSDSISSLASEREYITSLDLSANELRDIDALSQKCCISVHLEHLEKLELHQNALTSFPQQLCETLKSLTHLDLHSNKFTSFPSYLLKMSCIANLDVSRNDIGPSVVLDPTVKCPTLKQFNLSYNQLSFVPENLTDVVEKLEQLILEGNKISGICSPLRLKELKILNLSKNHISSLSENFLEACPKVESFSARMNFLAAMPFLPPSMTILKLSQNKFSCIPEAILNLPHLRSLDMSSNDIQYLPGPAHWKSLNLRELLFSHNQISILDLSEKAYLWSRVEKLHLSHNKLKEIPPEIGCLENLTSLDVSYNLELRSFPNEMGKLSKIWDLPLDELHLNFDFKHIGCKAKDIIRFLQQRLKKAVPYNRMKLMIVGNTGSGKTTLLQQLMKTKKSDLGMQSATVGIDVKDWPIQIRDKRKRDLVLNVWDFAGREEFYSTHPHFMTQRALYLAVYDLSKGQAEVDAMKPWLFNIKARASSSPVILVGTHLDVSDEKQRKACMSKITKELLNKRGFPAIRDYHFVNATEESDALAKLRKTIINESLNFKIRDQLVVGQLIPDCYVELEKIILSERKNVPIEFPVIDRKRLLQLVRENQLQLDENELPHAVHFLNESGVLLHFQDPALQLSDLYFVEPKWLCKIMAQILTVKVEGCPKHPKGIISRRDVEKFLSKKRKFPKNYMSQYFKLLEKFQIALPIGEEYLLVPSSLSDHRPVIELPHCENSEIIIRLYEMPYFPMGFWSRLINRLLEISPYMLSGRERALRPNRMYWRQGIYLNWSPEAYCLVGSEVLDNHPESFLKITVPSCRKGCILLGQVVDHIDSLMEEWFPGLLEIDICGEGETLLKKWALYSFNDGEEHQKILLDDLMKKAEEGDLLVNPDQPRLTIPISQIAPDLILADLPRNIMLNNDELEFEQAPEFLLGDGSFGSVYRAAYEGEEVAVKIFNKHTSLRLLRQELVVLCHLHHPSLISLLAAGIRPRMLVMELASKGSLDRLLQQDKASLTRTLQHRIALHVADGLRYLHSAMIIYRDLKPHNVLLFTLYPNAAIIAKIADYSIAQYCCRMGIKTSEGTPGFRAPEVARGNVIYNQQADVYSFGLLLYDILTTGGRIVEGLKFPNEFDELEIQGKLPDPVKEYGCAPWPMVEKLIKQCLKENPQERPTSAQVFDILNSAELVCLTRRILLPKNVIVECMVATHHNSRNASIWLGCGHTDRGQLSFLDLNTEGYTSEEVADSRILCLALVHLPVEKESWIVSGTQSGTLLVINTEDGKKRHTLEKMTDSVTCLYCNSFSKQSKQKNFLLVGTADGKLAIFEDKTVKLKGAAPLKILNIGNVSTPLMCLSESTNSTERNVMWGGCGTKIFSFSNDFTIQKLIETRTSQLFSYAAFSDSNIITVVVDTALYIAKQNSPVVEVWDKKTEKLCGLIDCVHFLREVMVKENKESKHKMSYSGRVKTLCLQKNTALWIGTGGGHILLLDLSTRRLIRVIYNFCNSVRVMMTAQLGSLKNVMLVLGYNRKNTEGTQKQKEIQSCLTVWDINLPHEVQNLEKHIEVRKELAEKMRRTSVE
MEASUREMENT PROTOCOL: LRRK2 G2019S Km ATP LanthaScreen assay
Assay type: biochemical
SETTINGS: read-out: LRRK2 pIC50 (converted)
MEASURED PROPERTY: IC50 (nM)
Report the figure in nM without appending any unit label.

| COMPOUND | IC50 [nM] |
| --- | --- |
| CC1(N2CCC(c3cc4cc(NC(=O)C5CC56CCOCC6)ncc4cc3F)CC2)COCC1O (single isomer, unassigned) | 0.195 |
| CC1(N2CCC(c3cc4cc(NC(=O)C5CC56CCC(F)(F)CC6)ncc4cc3Cl)CC2)COCC1O (stereo not drawn) [Ex-2.16] | 0.407 |
| Cc1cc2cnc(NC(=O)C3CC3c3ccccn3)cc2cc1C1CCN(C2(C)COCC2F)CC1 (single isomer, unassigned) [Ex-13.2] | 38.9 |
| O=C(Nc1cc2cc(C3CCN(C4COCC4O)CC3)c(Cl)cc2cn1)C1CC12CCOCC2 (single isomer, unassigned) [Ex-4.3] | 18.2 |

input: Give the measured IC50 for O=C(Nc1cc2cc(C3C4CCOCC43)c(Cl)cc2cn1)C1CC12CCOCC2 (single isomer, unassigned) [Ex-9.24]
output: 6.61

input: Tell me its IC50 given O=C(Nc1cc2cc(C3CCN(C4COC4)CC3)c(Cl)cc2cn1)C1CC12CC2 (single isomer, unassigned) as the entry.
output: 1.45

input: Return reported IC50. Input compound: CC1(N2CCC(c3cc4cc(NC(=O)C5CCC5c5ccccn5)ncc4cc3Cl)CC2)COCC1O (single isomer, unassigned) [Ex-4.73]
output: 661

input: Give IC50 for the following compound: CC1(N2CCC(c3cc4cc(NC(=O)C5C6COCC65)ncc4cc3Cl)CC2)COCC1O (stereo not drawn)
output: 0.214

input: Tell me IC50 reported for CC1(C)C(C(=O)Nc2cc3cc(C4CCN(C5(C)COCC5O)CC4)c(Cl)cc3cn2)C1c1ccccn1 (single isomer, unassigned) [Ex-4.46]
output: 3.55

Recorded values, source patent US20240398784A1.
